Readings of Degree of progression of reaction (%) after 7.5 minutes for the listed compounds
Test system: cholesterol oxidase (CHO-CE)
Test: Acceleration of cholesterol detection reaction with small amount of cholesterol oxidase (Example 13)
Format: biochemical
Setup conditions: cholesterol detection reaction; ΔA/ΔA100%; 2.5 minutes after addition of second reagent; 0.04% (w/v) compound; 2.31 U/ml CHO-CE; not added: 65
Measurement name: Degree of progression of reaction (%) after 7.5 minutes

Line notation	Target of assay	Unit string	Data value
O=S(=O)([O-])c1cccc(N=Nc2ccc(Nc3ccccc3)cc2)c1.[Na+]	cholesterol oxidase (CHO-CE)	%	73
O=C([O-])c1cc(N=Nc2ccc([N+](=O)[O-])cc2)ccc1O.[Na+]	cholesterol oxidase (CHO-CE)	%	74
O=C(O)c1cc(N=Nc2ccc3cc(S(=O)(=O)O)ccc3c2)ccc1O.[Na]	cholesterol oxidase (CHO-CE)	%	67
COc1cc(N=Nc2ccc(N)cc2)c(C)cc1N	cholesterol oxidase (CHO-CE)	%	66
O=C([O-])c1cc(N=Nc2cccc([N+](=O)[O-])c2)ccc1O.[Na+]	cholesterol oxidase (CHO-CE)	%	73
Cc1nn(-c2cc(S(=O)(=O)[O-])ccc2Cl)c(O)c1N=Nc1ccccc1.[Na+]	cholesterol oxidase (CHO-CE)	%	72

====

compounds and their reported Degree of progression of reaction (%) after 10 minutes
Test system: cholesterol oxidase (CHO-CE)
Test: Acceleration of cholesterol detection reaction with small amount of cholesterol oxidase (Example 13)
Type: biochemical
Setup conditions: cholesterol detection reaction; ΔA/ΔA100%; 5 minutes after addition of second reagent; 0.04% (w/v) compound; 2.31 U/ml CHO-CE; not added: 88
Measurement name: Degree of progression of reaction (%) after 10 minutes

Line notation	Target of assay	Data value
O=C(O)c1cc(N=Nc2ccc3cc(S(=O)(=O)O)ccc3c2)ccc1O.[Na]	cholesterol oxidase (CHO-CE)	91
COc1cc(N=Nc2ccc(N)cc2)c(C)cc1N	cholesterol oxidase (CHO-CE)	97
O=C([O-])c1cc(N=Nc2ccc([N+](=O)[O-])cc2)ccc1O.[Na+]	cholesterol oxidase (CHO-CE)	94
Cc1nn(-c2cc(S(=O)(=O)[O-])ccc2Cl)c(O)c1N=Nc1ccccc1.[Na+]	cholesterol oxidase (CHO-CE)	92
O=C([O-])c1cc(N=Nc2cccc([N+](=O)[O-])c2)ccc1O.[Na+]	cholesterol oxidase (CHO-CE)	93
O=S(=O)([O-])c1cccc(N=Nc2ccc(Nc3ccccc3)cc2)c1.[Na+]	cholesterol oxidase (CHO-CE)	92

====

Test system: fructosyl amino acid oxidase (FAOD-E)
Test: Acceleration of fructosyl valine detection reaction with small amount of fructosyl amino acid oxidase (Example 9)
Assay type: biochemical
Setup conditions: fructosyl valine detection reaction; ΔA/ΔA100%; 5 minutes after addition of second reagent; 0.04% (w/v) compound; 2.14 U/ml FAOD-E; not added: 48
Measurement name: Degree of progression of reaction (%) after 10 minutes

Line notation	Unit string	Data value
O=C([O-])c1cc(N=Nc2cccc([N+](=O)[O-])c2)ccc1O.[Na+]	%	62
COc1cc(N=Nc2ccc(N)cc2)c(C)cc1N	%	89
O=C(O)c1cc(N=Nc2ccc3cc(S(=O)(=O)O)ccc3c2)ccc1O.[Na]	%	68
O=C([O-])c1cc(N=Nc2ccc([N+](=O)[O-])cc2)ccc1O.[Na+]	%	59

====

Test system: sarcosine oxidase (SOD-TE)
Test: Acceleration of sarcosine detection reaction with small amount of sarcosine oxidase (Example 11)
Type: biochemical
Setup conditions: sarcosine detection reaction; ΔA/ΔA100%; 5 minutes after addition of second reagent; 0.04% (w/v) compound; 12.3 U/ml SOD-TE; not added: 82
compounds and their reported Degree of progression of reaction (%) after 10 minutes
Measurement name: Degree of progression of reaction (%) after 10 minutes

Compound	Data value
COc1cc(N=Nc2ccc(N)cc2)c(C)cc1N [Disperse Diazo Black 3BF]	84
O=C([O-])c1cc(N=Nc2ccc([N+](=O)[O-])cc2)ccc1O.[Na+] [Mordant Orange 1]	88
COc1cc(N=Nc2cccc(S(=O)(=O)[O-])c2)ccc1NC(=O)Nc1ccc(N=Nc2ccc(O)c(C(=O)[O-])c2)cc1.[Na+].[Na+] [Direct Yellow 44]	89
O=C(O)c1cc(N=Nc2ccc3cc(S(=O)(=O)O)ccc3c2)ccc1O.[Na] [Chrome Yellow]	87
O=C([O-])c1cc(N=Nc2cccc([N+](=O)[O-])c2)ccc1O.[Na+] [Alizarin Yellow GG]	86

====

Tested on: cholesterol oxidase (CHO-CE)
Test: Cholesterol detection reaction completed with excess cholesterol oxidase (Example 12)
Type: biochemical
Setup conditions: change in A694-A751 9 minutes after mixing; 0.04% (w/v) compound; 11.6 U/ml CHO-CE (excess); 32 μM cholesterol; pH 7.0, 37° C.
Reported ΔA9 min values for a set of compounds
Measurement name: ΔA9 min

Line notation	Measurement name	Data value
O=S(=O)([O-])c1cccc(N=Nc2ccc(Nc3ccccc3)cc2)c1.[Na+]	ΔA9 min	0.033
O=C([O-])c1cc(N=Nc2ccc([N+](=O)[O-])cc2)ccc1O.[Na+]	ΔA9 min	0.041
O=C([O-])c1cc(N=Nc2cccc([N+](=O)[O-])c2)ccc1O.[Na+]	ΔA9 min	0.039
COc1cc(N=Nc2ccc(N)cc2)c(C)cc1N	ΔA9 min	0.028
O=C(O)c1cc(N=Nc2ccc3cc(S(=O)(=O)O)ccc3c2)ccc1O.[Na]	ΔA9 min	0.071
Cc1nn(-c2cc(S(=O)(=O)[O-])ccc2Cl)c(O)c1N=Nc1ccccc1.[Na+]	ΔA9 min	0.033

====

Tested on: sarcosine oxidase (SOD-TE)
Test: Sarcosine detection reaction completed with excess sarcosine oxidase (Example 10)
Type: biochemical
Setup conditions: change in A694-A751 9 minutes after mixing; 0.04% (w/v) compound; 123 U/ml SOD-TE (excess); 32 μM sarcosine; pH 8.0, 37° C.
Binary classification by ΔA9 min, with 0.2 as an inclusive lower bound for 1.0; all other cases are 0.0.

Line notation	Assigned category
O=C(O)c1cc(N=Nc2ccc3cc(S(=O)(=O)O)ccc3c2)ccc1O.[Na]	0.0
COc1cc(N=Nc2cccc(S(=O)(=O)[O-])c2)ccc1NC(=O)Nc1ccc(N=Nc2ccc(O)c(C(=O)[O-])c2)cc1.[Na+].[Na+]	1.0
COc1cc(N=Nc2ccc(N)cc2)c(C)cc1N	0.0
O=C([O-])c1cc(N=Nc2ccc([N+](=O)[O-])cc2)ccc1O.[Na+]	1.0

====

System: fructosyl amino acid oxidase (FAOD-E)
Test: Fructosyl valine detection reaction completed with excess fructosyl amino acid oxidase (Example 8)
Type: biochemical
Setup conditions: change in A694-A751 10 minutes after mixing; 0.04% (w/v) compound; 21.4 U/ml FAOD-E (excess); 32 μM fructosyl valine; pH 8.0, 37° C.; defined as ΔA100%
Description: In this Example, the amount of change in absorbance is determined when the detection reaction of the substrate fructosyl valine was completed using an excess amount of fructosyl amino acid oxidase (FAOD-E), which is an oxidase. A reagent for fructosyl valine measurement having the following composition was prepared, and the measurement of fructosyl valine using fructosyl amino acid oxidase was carried out using Bio Majesty JCA-BM 1650 (manufactured by JEOL Ltd.). […]

Line notation	ΔA10 min
O=C([O-])c1cc(N=Nc2ccc([N+](=O)[O-])cc2)ccc1O.[Na+]	0.051
O=C([O-])c1cc(N=Nc2cccc([N+](=O)[O-])c2)ccc1O.[Na+]	0.046
COc1cc(N=Nc2ccc(N)cc2)c(C)cc1N	0.061
O=C(O)c1cc(N=Nc2ccc3cc(S(=O)(=O)O)ccc3c2)ccc1O.[Na]	0.067
